Source listed as paper PMC3037362.

experimentalSystem: RnpA (protein component of ribonuclease P) (Staphylococcus aureus, UniProt P0A0H5)
Construct: recombinant full-length predicted open reading frame, N-terminal hexahistidine tag
Sequence (P0A0H5 whole entry): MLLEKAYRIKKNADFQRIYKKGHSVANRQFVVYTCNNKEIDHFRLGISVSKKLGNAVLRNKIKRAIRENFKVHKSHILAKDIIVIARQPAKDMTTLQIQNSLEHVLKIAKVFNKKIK
methodDescription: RiboGreen fluorescence RNA degradation screen; agarose gel titration of spa mRNA degradation by purified RnpA
pIC50: −log10 of the molar value.
endpointLabel: pIC50

Item under review: Cc1cc(/C=C(/C#N)C(=O)Nc2cccc(Br)c2)c(C)n1-c1ccc(C(=O)O)cc1 . Reported pIC50?
3.90 to 4.00

* * *

experimentalSystem: RNase III (Escherichia coli, UniProt P0A7Y0)
Sequence (P0A7Y0 whole entry): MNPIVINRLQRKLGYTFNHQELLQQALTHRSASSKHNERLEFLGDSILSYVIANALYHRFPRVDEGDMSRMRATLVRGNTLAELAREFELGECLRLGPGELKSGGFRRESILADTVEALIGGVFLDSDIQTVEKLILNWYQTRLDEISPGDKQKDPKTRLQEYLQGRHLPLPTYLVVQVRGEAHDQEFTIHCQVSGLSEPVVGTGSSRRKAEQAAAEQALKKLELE
endpointLabel: IC50

Query IC50 on RNase III (Escherichia coli, UniProt P0A7Y0) for Cc1cc(/C=C(/C#N)C(=O)Nc2cccc(Br)c2)c(C)n1-c1ccc(C(=O)O)cc1
500 to 750 µM
